# System: HepG2
# test description: Cytotoxicity against human HepG2 cells after 72 hrs by MTT assay
# Format: functional, cell-based
# condition label: HepG2, 72 h
Provide the reported pIC50 of each item.
One number for each entry, as −log10 of the molar value.

compound=COc1cc(OC)c2c(O)c(C(C)=O)c(C)cc2c1 property_measured=pIC50 result=5.02
compound=COc1cc(C)cc2c1C(=O)c1c(O)cccc1C2=O property_measured=pIC50 result=5.03
compound="COc1cccc2c1C(=O)C1=C(C[C@H](C)O[C@@H]1C)C2(OC)c1ccc2cc3c(c(O)c2c1O)C(=O)C[C@@](C)(O)C3 (stereo partly specified)" property_measured=pIC50 result=5.34

Problem: Identify measured pIC50 corresponding to COc1cc([C@@H]2c3cc4c(cc3[C@@H](O[C@@H]3O[C@@H]5CO[C@@H](C)O[C@H]5[C@H](O)[C@H]3O)[C@H]3COC(=O)[C@H]23)OCO4)cc(OC)c1O [ETOPOSIDE]
Solution: 5.44

These measurements were taken from ChEMBL document CHEMBL3352408.
